Reference for the values: PubChem BioAssay AID686978

Experiment: qHTS for Inhibitors of human tyrosyl-DNA phosphodiesterase 1 (TDP1): qHTS in cells in absence of CPT; note: nearly all actives have a fitted effect of over 55% in size
Conditions: DT40 Tdp1-/- hTDP1 cells, no CPT, ATP luminescence, 48 h
About 64,000 (15%) of roughly 420,000 compounds were called active. About 27% were inconclusive and are not listed. Calls come from the whole dose curve; as a rule, active = well fitted inhibition curve with a large enough effect; inconclusive = small, poorly fitted or top-dose-only effect; inactive = flat fitted curve, though single readings scatter. Only a sample is shown.
Outcome codes: 1.0 (active), 0.0 (inactive)

INSERT INTO results (compound, label_class) VALUES
  ('Cc1ccc(CC2S/C(=C(/C#N)C(=O)N3CCOCC3)N(c3ccccc3)C2=O)cc1 (stereo unspecified)', 0.0),
  ('Cc1cc2oc3ccc(NCCC4CCCN4C)cc3c(=O)c2cc1C (stereo unspecified)', 1.0),
  ('CCOC(=O)C(=CNc1cccc(C)n1)C(=O)OCC', 0.0),
  ('CC(=O)c1ccc(NC(=O)C(C)NCc2ccc(Cl)cc2)cc1 (stereo unspecified)', 0.0),
  ('Cc1ccc(NC(=O)COc2ccc(/C=N\NC(=O)c3cccnc3)cc2)cc1C', 0.0),
  ('O=C(O/N=C(/c1ccccc1)c1ccncc1)c1ccccc1[N+](=O)[O-]', 0.0),
  ('O=C(C=CC(=O)Nc1ccc(F)cc1F)Nc1ccc(F)cc1F', 0.0),
  ('Cc1ccc2[nH]c3c(=O)n(CC(=O)NC(C)C)ncc3c2c1', 0.0),
  ('COc1ccc(NC(=O)C/C(C)=N/NC(=O)c2cnccn2)cc1Cl', 0.0),
  ('CC(C)c1ccc(/C=C/C(=O)NNC(=O)c2cccnc2)cc1', 0.0),
  ('COc1nc(OC)nc(N(C)CCO)n1', 0.0);

====

Test: qHTS for Inhibitors of human tyrosyl-DNA phosphodiesterase 1 (TDP1): qHTS in cells in absence of CPT; note: nearly all actives have a fitted effect of over 55% in size; note: potency is the fitted concentration of half-maximal effect
Conditions: DT40 Tdp1-/- hTDP1 cells, no CPT, ATP luminescence, 48 h
About 64,000 (15%) of roughly 420,000 compounds were called active. Another 27% or so got no clear call; they are omitted. These entries were drawn from the full list.
measured_property: Potency

INSERT INTO results (molecule, measured_property, reading) VALUES
  ('COc1ccc(C(CNC(=O)COc2ccc([N+](=O)[O-])cc2)N2CCCCC2)cc1 (configuration not stated)', 'Potency', 'inactive'),
  ('O=C(c1cccc(C(=O)N2CCc3ccccc32)n1)N1CCc2ccccc21', 'Potency', 'inactive'),
  ('CCCN(C(=O)Cn1cc(S(=O)(=O)N2CCN(c3ccccc3F)CC2)c2ccccc2c1=O)c1cccc(C)c1', 'Potency', '18.4 µM (active)'),
  ('COc1ccc(S(=O)(=O)NCC(c2ccc(C)cc2)N2CCN(C)CC2)cc1OC (configuration not stated)', 'Potency', 'inactive'),
  ('CCCCn1nc(C(=O)OCC(=O)Nc2sccc2C(N)=O)c2ccccc2c1=O', 'Potency', 'inactive'),
  ('CCOC(=O)N1CCN(c2c(NCCN3CCN(c4ccccc4F)CC3)c(=O)c2=O)CC1', 'Potency', 'inactive'),
  ('COc1ccc(NC(=O)Cn2c(=O)n(Cc3ccco3)c(=O)c3ccccc32)cc1', 'Potency', 'inactive'),
  ('CC(NC(=O)Nc1cccc([N+](=O)[O-])c1)c1ccc2c(c1)OCO2 (configuration not stated)', 'Potency', 'inactive'),
  ('Cc1noc(C)c1CCC(=O)O', 'Potency', 'inactive'),
  ('CCn1c(COc2ccccc2)nnc1SCC(=O)NCc1ccco1', 'Potency', 'inactive'),
  ('Cn1c2ccccc2c(=O)c2c(=O)n(Cc3ccco3)c(COc3ccccc3)nc21', 'Potency', '14.6 µM (active)'),
  ('O=C(CSc1nnc(Cc2ccccc2)n1-c1ccccc1)N1CCOCC1', 'Potency', 'inactive'),
  ('C=CCNC(=O)COc1coc(CN2CCN(Cc3ccccc3)CC2)cc1=O', 'Potency', 'inactive'),
  ('COc1ccc(CCNc2cc(C)nc3c(-c4ccc(Cl)cc4)c(C)nn23)cc1OC', 'Potency', '18.4 µM (active)'),
  ('COc1ccc(C2C(C(=O)Nc3ccccc3OC)=C(C)Nc3nnnn32)c(OC)c1 (configuration not stated)', 'Potency', 'inactive'),
  ('C=CCNC(=S)/N=c1/ccccn1Cc1ccccc1', 'Potency', '1.84 µM (active)'),
  ('O=C(CN1CCN(c2ccccc2F)CC1)c1ccc2c(c1)OCO2', 'Potency', 'inactive'),
  ('COc1ccc(C(=O)Nc2c(N)nc(SCC(=O)Nc3ccc(C(C)=O)cc3)[nH]c2=O)cc1', 'Potency', 'inactive'),
  ('CCC(=O)N1CCCc2ccccc21', 'Potency', 'inactive'),
  ('COc1ccc(-c2cc(NC=O)c3ncc(-c4cccc(C(=O)N(C)C)c4)n3c2)c(OC)c1', 'Potency', '16.4 µM (active)'),
  ('CNC(=S)NNC(=O)c1cccn(Cc2ccccc2)c1=O', 'Potency', 'inactive'),
  ('CC1(C)NC(=O)N(CC(=O)N2CCN(S(=O)(=O)c3ccccc3F)CC2)C1=O', 'Potency', 'inactive');

====

Test: qHTS for Inhibitors of human tyrosyl-DNA phosphodiesterase 1 (TDP1): qHTS in cells in absence of CPT; note: nearly all actives have a fitted effect of over 55% in size
Conditions: DT40 Tdp1-/- hTDP1 cells, no CPT, ATP luminescence, 48 h
Among all 420,000 compounds or so, about 64,000 (15%) were called active. Inconclusive results (about 27%) are left out. Calls come from the whole dose curve; as a rule, active = well fitted inhibition curve with a large enough effect; inconclusive = small, poorly fitted or top-dose-only effect; inactive = flat fitted curve, though single readings scatter. Only a sample is shown.
Outcome codes: active, inactive

INSERT INTO results (compound, label_class) VALUES
  ('CC(=O)N/C(=C\c1ccc(F)cc1)C(=O)NC(Cc1ccccc1)C(=O)O (stereo not given)', 'inactive'),
  ('COc1ccc(C)cc1N(CC(=O)NC(C)c1ccccc1)S(C)(=O)=O (stereo not given)', 'inactive'),
  ('CCN(CC)c1ccc(C(=O)Nn2c(C)nc3ccccc3c2=O)cc1', 'inactive'),
  ('Cc1ccc(C(=O)NCCNC(=O)c2cnccn2)cc1', 'inactive'),
  ('CNCCCOc1cc2nc(N3CCCN(C)CC3)nc(NC3CCN(C)CC3)c2cc1OC', 'inactive'),
  ('CC(C)N(Cc1nc(-c2ccc3c(c2)OCO3)no1)CC1CCC(=O)N1 (stereo not given)', 'inactive'),
  ('COc1cc2nc(N3CCCN(C)CC3)nc(NC3CC3)c2cc1OC', 'active'),
  ('COc1cc2nc(N3CCCN(C)CC3)nc(NC(C)C)c2cc1OC', 'active'),
  ('CCN(CC)c1ccc(/C=N/NC(=O)c2cnccn2)c(O)c1', 'active'),
  ('Cc1ccc(S(=O)(=O)N(CCc2ccccc2)c2ccc3c(c2)C2CC3CCN2C(=O)OCc2ccccc2)cc1 (stereo not given)', 'active');

====

Test: qHTS for Inhibitors of human tyrosyl-DNA phosphodiesterase 1 (TDP1): qHTS in cells in absence of CPT; note: nearly all actives have a fitted effect of over 55% in size
Conditions: DT40 Tdp1-/- hTDP1 cells, no CPT, ATP luminescence, 48 h
Among all 420,000 compounds or so, about 64,000 (15%) were called active. Another 27% or so got no clear call; they are omitted. The call rests on the fitted dose curve; in most records, active means well fitted inhibition curve with a large enough effect; inconclusive means small, poorly fitted or top-dose-only effect; inactive means flat fitted curve, though single readings scatter. Only a sample is shown.
Outcome codes: 1 for active, -1 for inactive

INSERT INTO measurements (structure_as_smiles, label_class) VALUES
  ('CCCCCCCCCCOC(=O)Cn1c(COc2ccc(C)cc2)[n+](C)c2ccccc21', 1),
  ('CCOC(=O)Cn1c(-c2cccnc2Cl)nc2ccccc21', -1),
  ('CCn1c(COc2cccc(OC)c2)nnc1SCC(=O)N1CCOCC1', -1),
  ('COc1cccc(OCCCN2CCCCCC2)c1', -1),
  ('CCCCCCCCCCOC(=O)Cn1c(COc2cccc(OC)c2)[n+](C)c2ccccc21', 1),
  ('Cc1ccc(OCCCn2c(=O)oc3ccccc32)cc1', -1);

====

Assay: qHTS for Inhibitors of human tyrosyl-DNA phosphodiesterase 1 (TDP1): qHTS in cells in absence of CPT; note: nearly all actives have a fitted effect of over 55% in size
Details: DT40 Tdp1-/- hTDP1 cells, no CPT, ATP luminescence, 48 h
In all, about 420,000 compounds went through this assay and about 64,000 (15%) were called active. Not shown: some 27% with an inconclusive outcome. The call rests on the fitted dose curve; in most records, active means well fitted inhibition curve with a large enough effect; inconclusive means small, poorly fitted or top-dose-only effect; inactive means flat fitted curve, though single readings scatter. Not all results are given here.
Outcome codes: yes for active, no for inactive

INSERT INTO measurements (compound, label_class) VALUES
  ('CCOC(=O)C1CCN(C(=O)CSc2cc(=O)n(C)c3ccccc23)CC1', 'no'),
  ('CN(C(=O)CN1CCN(c2cc(-c3ccc(OCc4ccccc4)cc3)ncn2)CC1)c1ccccc1', 'yes'),
  ('CCOC(=O)c1c(NC(=O)CSc2nnc(CNc3ccc(C)cc3C)o2)sc(C)c1C', 'no'),
  ('COc1ccc(Cl)cc1NC(=O)NCC1CCN(Cc2ccccc2F)CC1', 'no'),
  ('CCN1CCN(C(=O)N[C@@H](C(=O)N[C@@H]2C(=O)N3[C@@H]2SC(C)(C)[C@H]3C(=O)O)c2ccccc2)C(=O)C1=O', 'no'),
  ('Cc1noc(C)c1COc1ccc2ccc(=O)oc2c1', 'no'),
  ('CS(=O)(=O)N1CCN(C(=O)CSc2ccccc2)CC1', 'no'),
  ('COc1cc(CC(=O)N2CCC(n3nccc3NC(=O)C3CC3)CC2)cc(OC)c1OC', 'no'),
  ('CCn1cc(CN2CCC(n3nccc3NC(=O)CCCc3ccccc3)CC2)c(C)n1', 'no'),
  ('CC(=O)Nc1ccccc1Sc1ccc2c3c(cccc13)C(=O)N(c1ccc(C)cc1)C2=O', 'yes'),
  ('CN1OC[C@@H]2CN(C(=O)c3cccc4ccccc34)[C@H](c3ccc(N4CCCCC4)cc3)C[C@@H]21', 'no'),
  ('C[C@H](NC(=O)c1ccccc1)C(=O)OCC(=O)c1c[nH]c2ccccc12', 'no'),
  ('CSc1ccccc1NC(=O)C(C)N1C(=O)c2ccccc2S1(=O)=O (configuration not stated)', 'no'),
  ('COc1ccc(Cl)cc1NS(=O)(=O)c1cccc(C(=O)NCC2CCCO2)c1 (configuration not stated)', 'no'),
  ('O=C(CCN1CCN(C/C=C/c2ccccc2)CC1)Nc1cccc(F)c1', 'no'),
  ('CCOc1cc(CNCc2ccccn2)ccc1OCC(=O)NC(C)(C)C', 'no'),
  ('CC(=O)O[C@H]1c2ccccc2-c2ccccc2[C@@H]1OC(C)=O', 'no'),
  ('O=C(c1ccc(Oc2ccc(Cl)cc2)c([N+](=O)[O-])c1)N1CCCC1', 'yes'),
  ('O=C(NC1CCCC1)C(c1ccc(Cl)cc1)N(C(=O)c1csnn1)C1CC1 (configuration not stated)', 'no'),
  ('COC(=O)c1ccc(COC(=O)c2c(C)nn(Cc3ccccc3Cl)c2Cl)o1', 'no'),
  ('O=C(COC(=O)Cc1ccc([N+](=O)[O-])cc1)NC1CCCCCC1', 'no'),
  ('CC1O[C@@H](Oc2c(-c3ccc(O)c(O)c3)oc3cc(O)cc(O)c3c2=O)C(O)C(O)C1O (some centres not stated)', 'no'),
  ('O=C(COc1ccc(Cl)cc1[N+](=O)[O-])N1CCCCC1', 'no'),
  ('O=C(Nc1cccc(-c2cccc(Cl)c2)c1)C1CCN(C2CCC2)CC1', 'yes'),
  ('O=C1COc2ccc(C(=O)COC(=O)CCOc3ccccc3)cc2N1', 'no'),
  ('CCCCn1c(N)c(N(CCOC)C(=O)c2cccc(S(=O)(=O)N(C)c3ccccc3)c2)c(=O)[nH]c1=O', 'no'),
  ('COc1ccc(CN2C3CCCC2CC(NC(=O)c2cccc(F)c2)C3)cc1 (configuration not stated)', 'no'),
  ('CS(=O)(=O)N1CCCC(C(=O)N2CCOCC2)C1 (configuration not stated)', 'no'),
  ('O=C(NCC1CCN(Cc2ccccc2Cl)CC1)Nc1cccc(Cl)c1', 'yes'),
  ('O=C(CN1C(=O)NC2(CCCCCC2)C1=O)NCc1cccs1', 'no'),
  ('COc1ccc(CN2C[C@H]3CON(C)[C@H]3C[C@H]2c2ccc(-c3cccc(F)c3)cc2)cc1', 'yes'),
  ('CCCc1cc(=O)oc2c(C)c(OCC(=O)Nc3ccccn3)ccc12', 'no'),
  ('COc1cccc(-c2cccc(NC(=O)C3CCN(C4CCC4)CC3)c2)c1', 'no'),
  ('Cc1ccsc1C(=O)NCCc1ccco1', 'no'),
  ('N#Cc1ccc(C(c2ccc(C#N)cc2)n2cncn2)cc1', 'no'),
  ('COC(=O)CC(CC(=O)OC)n1cccc1', 'no'),
  ('Cc1ccc(N2CCN(c3ccc(C)cc3)C2c2ccccn2)cc1', 'no'),
  ('O=C(NC1CCCC1)C1CCN(C(=O)Nc2cccc(Cl)c2)CC1', 'no'),
  ('O=C(Cc1ccc(-n2c(=O)c3sccc3n(Cc3ccc(F)cc3)c2=O)cc1)NCc1ccco1', 'yes'),
  ('COc1ccc(C)cc1N(CC(=O)N1CCCC1)S(=O)(=O)c1ccccc1', 'no'),
  ('CCN(CC)c1ccc(NC(=O)CN2CCN(c3ccccn3)CC2)cc1', 'no'),
  ('CCn1cc(CN2CCC(C(=O)Nc3cccc(-c4cccc(Cl)c4)c3)CC2)c(C)n1', 'yes');
